- target: T1, human GIP receptor (human, UniProt P48546 22-466)
- T1 sequence (looked up): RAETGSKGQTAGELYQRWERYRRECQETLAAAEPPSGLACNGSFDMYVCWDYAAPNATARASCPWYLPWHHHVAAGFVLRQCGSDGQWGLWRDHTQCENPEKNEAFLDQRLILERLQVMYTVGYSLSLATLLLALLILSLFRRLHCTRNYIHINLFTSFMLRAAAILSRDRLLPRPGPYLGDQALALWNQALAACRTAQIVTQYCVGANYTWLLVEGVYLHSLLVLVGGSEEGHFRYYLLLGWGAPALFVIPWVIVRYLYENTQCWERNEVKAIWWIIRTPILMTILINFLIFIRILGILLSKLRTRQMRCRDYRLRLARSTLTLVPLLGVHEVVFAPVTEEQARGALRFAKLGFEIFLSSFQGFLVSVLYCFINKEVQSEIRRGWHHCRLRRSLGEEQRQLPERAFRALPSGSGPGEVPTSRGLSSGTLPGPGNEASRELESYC
- protocol_description: cell-based or functional assay
Bridges are numbered along the chain shown (N, C = ends). Where no end group is shown, it is not given here. [ ]: non-standard residue; d: D form. Aib = CC(C)(N)C(=O)O
Recorded In vitro activity compared with native peptide (%) vs. GIP values for a group of binders are listed next.

Before answering, review these 5 worked examples.
Given the binder H[Aib]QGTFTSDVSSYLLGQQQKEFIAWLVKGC [Triple agonist of SEQ ID NO: 4] , what is its reported In vitro activity compared with native peptide (%) vs. GIP?
< 0.1%

Next binder up: Y[Aib]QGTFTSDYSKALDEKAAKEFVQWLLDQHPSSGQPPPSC (bridge 16-20) [Triple agonist of SEQ ID NO: 100]
118%

Next binder up: H[Aib]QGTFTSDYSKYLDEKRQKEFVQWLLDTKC (bridge 16-20) [Triple agonist of SEQ ID NO: 78]
0.12%

Next binder up: H[Aib]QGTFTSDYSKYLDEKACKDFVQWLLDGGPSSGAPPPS (bridge 16-20) [Triple agonist of SEQ ID NO: 32]
8.8%

Next binder up: H[Aib]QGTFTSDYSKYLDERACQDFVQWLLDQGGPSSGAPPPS [Triple agonist of SEQ ID NO: 27]
0.9%

// below: In vitro activity compared with native peptide (%) vs. GIP requested for another binder
Given the binder Y[Aib]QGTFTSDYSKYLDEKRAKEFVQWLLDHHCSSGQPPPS (bridge 16-20) [Triple agonist of SEQ ID NO: 43] , what is its reported In vitro activity compared with native peptide (%) vs. GIP?
3.7%

meta.source: patent US20240024426A1
